Sourced from ChEMBL document CHEMBL5046294

- MEASURED_TARGET: Mu-type opioid receptor (Mus musculus, UniProt P42866)
- Sequence (P42866 whole entry): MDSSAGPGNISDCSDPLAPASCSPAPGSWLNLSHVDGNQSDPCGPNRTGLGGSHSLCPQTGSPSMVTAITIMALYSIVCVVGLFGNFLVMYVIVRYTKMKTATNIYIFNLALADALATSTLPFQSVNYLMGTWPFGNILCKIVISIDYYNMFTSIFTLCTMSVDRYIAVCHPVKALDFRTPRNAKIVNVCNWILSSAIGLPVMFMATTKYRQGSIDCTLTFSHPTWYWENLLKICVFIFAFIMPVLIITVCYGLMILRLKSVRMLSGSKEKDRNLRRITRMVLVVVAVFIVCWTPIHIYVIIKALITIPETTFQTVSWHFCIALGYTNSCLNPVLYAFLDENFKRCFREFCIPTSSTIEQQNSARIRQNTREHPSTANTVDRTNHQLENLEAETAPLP
- ASSAY_METHOD_TEXT: Binding affinity to mouse mu opioid receptor expressed in CHO cells in presence of naltrexone incubated for 1.5 hrs by competitive radioligand binding assay
Mark y only for Ki values smaller than 0.6 nM; exact matches and larger values are n.

Some solved cases for reference:
Q) Bench note: check whether O=C(Cc1cc[nH]n1)N[C@@H]1CC[C@@]2(O)[C@H]3Cc4ccc(O)c5c4[C@@]2(CCN3CC2CC2)[C@H]1O5 shows Ki below 0.6 nM
A) y

Q) Bench note: check whether O=C(N[C@@H]1CC[C@@]2(O)[C@H]3Cc4ccc(O)c5c4[C@@]2(CCN3CC2CC2)[C@H]1O5)c1ncc[nH]1 shows Ki below 0.6 nM
A) y

Q) Bench note: check whether O=C(CCc1cn[nH]c1)N[C@@H]1CC[C@@]2(O)[C@H]3Cc4ccc(O)c5c4[C@@]2(CCN3CC2CC2)[C@H]1O5 shows Ki below 0.6 nM
A) y

Q) Bench note: check whether O=C(N[C@@H]1CC[C@@]2(O)[C@H]3Cc4ccc(O)c5c4[C@@]2(CCN3CC2CC2)[C@H]1O5)c1cnc[nH]1 shows Ki below 0.6 nM
A) y

Q) Bench note: check whether O=C(N[C@@H]1CC[C@@]2(O)[C@H]3Cc4ccc(O)c5c4[C@@]2(CCN3CC2CC2)[C@H]1O5)c1cc[nH]n1 shows Ki below 0.6 nM
A) y

Others:
Q) Bench note: check whether O=C(N[C@H]1CC[C@@]2(O)[C@H]3Cc4ccc(O)c5c4[C@@]2(CCN3CC2CC2)[C@H]1O5)c1ncc[nH]1 shows Ki below 0.6 nM
A) y

---

- Species: Mus musculus
- ASSAY_METHOD_TEXT: Selectivity index, ratio of Ki for binding affinity to mouse kappa opioid receptor to Ki for binding affinity to mouse mu opioid receptor
For each entry below, report its Ratio Ki value.

Could you tell me Ratio Ki for each of these compounds? They are listed below.
1. O=C(CCc1ncc[nH]1)N[C@@H]1CC[C@@]2(O)[C@H]3Cc4ccc(O)c5c4[C@@]2(CCN3CC2CC2)[C@H]1O5
2. O=C(CCc1cc[nH]n1)N[C@@H]1CC[C@@]2(O)[C@H]3Cc4ccc(O)c5c4[C@@]2(CCN3CC2CC2)[C@H]1O5
3. O=C(Cc1cn[nH]c1)N[C@@H]1CC[C@@]2(O)[C@H]3Cc4ccc(O)c5c4[C@@]2(CCN3CC2CC2)[C@H]1O5
4. O=C(N[C@@H]1CC[C@@]2(O)[C@H]3Cc4ccc(O)c5c4[C@@]2(CCN3CC2CC2)[C@H]1O5)c1cc[nH]n1
5. O=C(CCc1cn[nH]c1)N[C@@H]1CC[C@@]2(O)[C@H]3Cc4ccc(O)c5c4[C@@]2(CCN3CC2CC2)[C@H]1O5

A)
1: 1; 2: 10; 3: 82; 4: 3; 5: 40

Could you tell me Ratio Ki for each of these compounds? They are listed below.
1. O=C(Cc1ncc[nH]1)N[C@H]1CC[C@@]2(O)[C@H]3Cc4ccc(O)c5c4[C@@]2(CCN3CC2CC2)[C@H]1O5
2. O=C(N[C@H]1CC[C@@]2(O)[C@H]3Cc4ccc(O)c5c4[C@@]2(CCN3CC2CC2)[C@H]1O5)c1cnc[nH]1
3. O=C(N[C@H]1CC[C@@]2(O)[C@H]3Cc4ccc(O)c5c4[C@@]2(CCN3CC2CC2)[C@H]1O5)c1cn[nH]c1
4. O=C(N[C@@H]1CC[C@@]2(O)[C@H]3Cc4ccc(O)c5c4[C@@]2(CCN3CC2CC2)[C@H]1O5)c1ncc[nH]1
5. O=C(CCc1cnc[nH]1)N[C@@H]1CC[C@@]2(O)[C@H]3Cc4ccc(O)c5c4[C@@]2(CCN3CC2CC2)[C@H]1O5

A)
1: 4; 2: 2; 3: 8; 4: 11; 5: 3

Could you tell me Ratio Ki for each of these compounds? They are listed below.
1. O=C(Cc1cnc[nH]1)N[C@H]1CC[C@@]2(O)[C@H]3Cc4ccc(O)c5c4[C@@]2(CCN3CC2CC2)[C@H]1O5
2. O=C(CCc1cn[nH]c1)N[C@H]1CC[C@@]2(O)[C@H]3Cc4ccc(O)c5c4[C@@]2(CCN3CC2CC2)[C@H]1O5
3. O=C(Cc1cc[nH]n1)N[C@@H]1CC[C@@]2(O)[C@H]3Cc4ccc(O)c5c4[C@@]2(CCN3CC2CC2)[C@H]1O5
4. O=C(N[C@H]1CC[C@@]2(O)[C@H]3Cc4ccc(O)c5c4[C@@]2(CCN3CC2CC2)[C@H]1O5)c1ncc[nH]1

A)
1: 3; 2: 36; 3: 26; 4: 4
